Tested on: HepG2-GM130-SQSTM1
measurement-description: phenotypically active (imaging signature differs from DMSO and reproducible) at any of 0.3-9 uM (binary (1 = active, 0 = inactive)); higher = active
condition-info: treatment time: 24 h
Structures can show the parent of a compound that is named as a salt.
Entry note: the call must match one of 1 (yes) (active), 0 (no) (inactive)

O=C(O)c1ccc(Nc2ncc3c(n2)-c2ccc(Cl)cc2C(c2c(F)cccc2F)=NC3)cc1 :: 1 (yes)
O=NN(CCCl)C(=O)NCCCl :: 0 (no)
COC(=O)[C@H]1[C@H]2C[C@H]3c4[nH]c5ccccc5c4CCN3C[C@@H]2CC[C@@H]1O [Corynanthine hydrochloride] :: 0 (no)

Please look at the following compound next.
Query block: Record request — test call for `CCOC(=O)c1c(CSc2ccccc2)n(C)c2cc(Br)c(O)c(CN(C)C)c12`
Result block: 1 (yes)
